- Target Under Test: Oxytocin receptor (Homo sapiens)
- Experiment Notes: Intrinsic agonist activity at human oxytocin receptor expressed in CHO cells assessed as increase in intracellular calcium flux measured for 90 sec by fluo-4 dye based FLIPR assay relative to control
- Format: functional, cell-based
Metric Name: Intrinsic activity (%)

- Sample Smiles: "CC[C@H](C)[C@@H]1NC(=O)[C@H](Cc2ccc(O)cc2)N(C)C(=O)[C@@H](N)CSSC[C@@H](C(=O)N2CCC[C@H]2C(=O)N[C@@H](CC(C)C)C(=O)NCC(N)=O)NC(=O)[C@H](CC(N)=O)NC(=O)[C@H](CCC(N)=O)NC1=O"
  Intrinsic activity, %: 98
- Sample Smiles: "CC[C@H](C)[C@@H]1NC(=O)[C@H](Cc2ccc(O)cc2)NC(=O)CCSSC[C@@H](C(=O)N2CCC[C@H]2C(=O)N[C@@H](CC(C)C)C(=O)N(C)CC(N)=O)N(C)C(=O)[C@H](CC(N)=O)NC(=O)[C@H](CCC(N)=O)NC1=O"
  Intrinsic activity, %: 84
- Sample Smiles: "CC[C@H](C)[C@@H]1NC(=O)[C@H](Cc2ccc(O)cc2)NC(=O)[C@@H](N)CSSC[C@@H](C(=O)N2CCC[C@H]2C(=O)N[C@@H](CC(C)C)C(=O)NCC(N)=O)N(C)C(=O)[C@H](CC(N)=O)NC(=O)[C@H](CCC(N)=O)NC1=O"
  Intrinsic activity, %: 95
- Sample Smiles: "CC[C@H](C)[C@H]1C(=O)N[C@@H](CCC(N)=O)C(=O)N[C@@H](CC(N)=O)C(=O)N[C@H](C(=O)N2CCC[C@H]2C(=O)N[C@@H](CC(C)C)C(=O)NCC(N)=O)CSSC[C@H](N)C(=O)N[C@@H](Cc2ccc(O)cc2)C(=O)N1C"
  Intrinsic activity, %: 100
- Sample Smiles: "CC[C@H](C)[C@@H]1NC(=O)[C@H](Cc2ccc(O)cc2)NC(=O)[C@@H](N)CSSC[C@@H](C(=O)N2CCC[C@H]2C(=O)N[C@@H](CC(C)C)C(=O)NCC(N)=O)NC(=O)[C@H](CC(N)=O)NC(=O)[C@H](CCC(N)=O)NC1=O"
  Intrinsic activity, %: 102
- Sample Smiles: "CC[C@H](C)[C@@H]1NC(=O)[C@H](Cc2ccc(O)cc2)NC(=O)[C@@H](N)CSSC[C@@H](C(=O)N2CCC[C@H]2C(=O)N(C)[C@@H](CC(C)C)C(=O)N(C)CC(N)=O)NC(=O)[C@H](CC(N)=O)NC(=O)[C@H](CCC(N)=O)NC1=O"
  Intrinsic activity, %: 96
- Sample Smiles: "CC[C@H](C)[C@@H]1NC(=O)[C@H](Cc2ccc(O)cc2)NC(=O)CCSSC[C@@H](C(=O)N2CCC[C@H]2C(=O)N(C)[C@@H](CC(C)C)C(=O)N(C)CC(N)=O)NC(=O)[C@H](CC(N)=O)NC(=O)[C@H](CCC(N)=O)NC1=O"
  Intrinsic activity, %: 86
- Sample Smiles: "CC[C@H](C)[C@@H]1NC(=O)[C@H](Cc2ccc(O)cc2)NC(=O)[C@@H](N)CSSC[C@@H](C(=O)N2CCC[C@H]2C(=O)N[C@@H](CC(C)C)C(=O)NCC(N)=O)NC(=O)[C@H](CC(N)=O)N(C)C(=O)[C@H](CCC(N)=O)NC1=O"
  Intrinsic activity, %: 100

* * *

- Target Under Test: UniProt P30559
pKi: −log10 of the molar value.
Metric Name: pKi

[A] CC[C@H](C)[C@@H]1NC(=O)[C@H](Cc2ccc(O)cc2)NC(=O)[C@@H](NC)CSSC[C@@H](C(=O)N2CCC[C@H]2C(=O)N[C@@H](CC(C)C)C(=O)NCC(N)=O)NC(=O)[C@H](CC(N)=O)NC(=O)[C@H](CCC(N)=O)NC1=O
[B] CC[C@H](C)[C@@H]1NC(=O)[C@H](Cc2ccc(O)cc2)NC(=O)[C@@H](N)CSSC[C@@H](C(=O)N2CCC[C@H]2C(=O)N[C@@H](CC(C)C)C(=O)NCC(N)=O)NC(=O)[C@H](CC(N)=O)N(C)C(=O)[C@H](CCC(N)=O)NC1=O
Which entry has a larger number for pKi, A or B ? Response format: the label of the selected entry.
A

* * *

- Target Under Test: Oxytocin receptor (Homo sapiens, UniProt P30559)
- Sequence (P30559 whole entry): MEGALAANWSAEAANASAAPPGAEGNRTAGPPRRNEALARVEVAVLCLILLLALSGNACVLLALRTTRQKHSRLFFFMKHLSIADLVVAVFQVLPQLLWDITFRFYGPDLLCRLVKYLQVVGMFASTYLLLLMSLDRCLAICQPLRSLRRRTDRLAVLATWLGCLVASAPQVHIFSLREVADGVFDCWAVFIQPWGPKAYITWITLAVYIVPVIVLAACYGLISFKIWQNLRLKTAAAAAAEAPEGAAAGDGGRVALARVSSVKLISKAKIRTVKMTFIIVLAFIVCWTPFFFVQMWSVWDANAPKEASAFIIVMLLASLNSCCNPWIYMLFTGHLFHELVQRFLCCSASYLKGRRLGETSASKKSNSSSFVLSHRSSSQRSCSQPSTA
- Experiment Notes: Agonist activity at human oxytocin receptor expressed in CHO cells assessed as increase in intracellular calcium flux measured for 90 sec by fluo-4 dye based FLIPR assay
pEC50: −log10 of the molar value.
Metric Name: pEC50

- Sample Smiles: "CC[C@H](C)[C@H]1C(=O)N[C@@H](CCC(N)=O)C(=O)N[C@@H](CC(N)=O)C(=O)N[C@H](C(=O)N2CCC[C@H]2C(=O)N[C@@H](CC(C)C)C(=O)NCC(N)=O)CSSC[C@H](N)C(=O)N[C@@H](Cc2ccc(O)cc2)C(=O)N1C"
  pEC50: 7.83

[I] CC[C@H](C)[C@@H]1NC(=O)[C@H](Cc2ccc(O)cc2)N(C)C(=O)[C@@H](N)CSSC[C@@H](C(=O)N2CCC[C@H]2C(=O)N[C@@H](CC(C)C)C(=O)NCC(N)=O)N(C)C(=O)[C@H](CC(N)=O)NC(=O)[C@H](CCC(N)=O)NC1=O
[II] CC[C@H](C)[C@@H]1NC(=O)[C@H](Cc2ccc(O)cc2)NC(=O)CCSSC[C@@H](C(=O)N2CCC[C@H]2C(=O)N(C)[C@@H](CC(C)C)C(=O)NCC(N)=O)N(C)C(=O)[C@H](CC(N)=O)NC(=O)[C@H](CCC(N)=O)NC1=O
Param pair: I , II . Output: the one whose pEC50 is numerically greater. Record your answer as the label of the chosen record.
II
(II: 8.37, I: 8.16)

* * *

- Target Under Test: Oxytocin receptor (Homo sapiens)
- Sequence (whole entry): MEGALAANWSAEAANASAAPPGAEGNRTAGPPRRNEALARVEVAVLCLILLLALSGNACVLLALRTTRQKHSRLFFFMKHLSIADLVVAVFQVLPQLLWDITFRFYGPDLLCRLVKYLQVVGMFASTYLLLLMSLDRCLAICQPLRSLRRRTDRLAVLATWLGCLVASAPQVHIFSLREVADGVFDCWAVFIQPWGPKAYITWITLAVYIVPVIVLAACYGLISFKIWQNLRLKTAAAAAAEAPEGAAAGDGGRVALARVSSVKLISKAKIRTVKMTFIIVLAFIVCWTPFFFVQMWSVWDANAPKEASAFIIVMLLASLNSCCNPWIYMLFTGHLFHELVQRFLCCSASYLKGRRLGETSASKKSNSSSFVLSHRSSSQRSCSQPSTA
- Experiment Notes: Intrinsic agonist activity at human oxytocin receptor expressed in CHO cells assessed as increase in intracellular calcium flux measured for 90 sec by fluo-4 dye based FLIPR assay relative to control
- Format: functional, cell-based
Metric Name: Intrinsic activity (%)

- Sample Smiles: "CC[C@H](C)[C@@H]1NC(=O)[C@H](Cc2ccc(O)cc2)NC(=O)CCSSC[C@@H](C(=O)N2CCC[C@H]2C(=O)N[C@@H](CC(C)C)C(=O)NCC(N)=O)NC(=O)[C@H](CC(N)=O)NC(=O)[C@H](CCC(N)=O)NC1=O"
  Target Under Test: "Oxytocin receptor (Homo sapiens)"
  Intrinsic activity / %: 106
- Sample Smiles: "CC[C@H](C)[C@@H]1NC(=O)[C@H](Cc2ccc(O)cc2)NC(=O)CCSSC[C@@H](C(=O)N2CCC[C@H]2C(=O)N(C)[C@@H](CC(C)C)C(=O)NCC(N)=O)N(C)C(=O)[C@H](CC(N)=O)NC(=O)[C@H](CCC(N)=O)NC1=O"
  Target Under Test: "Oxytocin receptor (Homo sapiens)"
  Intrinsic activity / %: 86
- Sample Smiles: "CC[C@H](C)[C@@H]1NC(=O)[C@H](Cc2ccc(O)cc2)N(C)C(=O)CCSSC[C@@H](C(=O)N2CCC[C@H]2C(=O)N[C@@H](CC(C)C)C(=O)NCC(N)=O)N(C)C(=O)[C@H](CC(N)=O)NC(=O)[C@H](CCC(N)=O)NC1=O"
  Target Under Test: "Oxytocin receptor (Homo sapiens)"
  Intrinsic activity / %: 97
- Sample Smiles: "CC[C@H](C)[C@@H]1NC(=O)[C@H](Cc2ccc(O)cc2)NC(=O)[C@@H](NC)CSSC[C@@H](C(=O)N2CCC[C@H]2C(=O)N[C@@H](CC(C)C)C(=O)NCC(N)=O)N(C)C(=O)[C@H](CC(N)=O)NC(=O)[C@H](CCC(N)=O)NC1=O"
  Target Under Test: "Oxytocin receptor (Homo sapiens)"
  Intrinsic activity / %: 81
